# Species: Rattus norvegicus
# assay notes: DrugMatrix - Regimen: Daily Repeat
# Format: toxicity, organism-based, Sprague-Dawley
# Set-up: regimen Daily Repeat, gender Male, age 6-8 weeks
# cond: in vivo, iv, 0 mg/kg, 72 h, tissue Plasma, dose level Control, time 3 day, vehicle 100 % SALINE
Listed next: entries and their corresponding CARBON DIOXIDE.
Provide only the numeric value, understood in mmol/L.

Below, each entry is followed by its recorded CARBON DIOXIDE result.
| smiles | property measured | unit info | experimental value |
| --- | --- | --- | --- |
| CC(=O)[C@]1(O)Cc2c(O)c3c(c(O)c2[C@@H](O[C@H]2C[C@H](N)[C@H](O)[C@H](C)O2)C1)C(=O)c1ccccc1C3=O | CARBON DIOXIDE | mmol/L | 27.5 |
| COC(=O)C[C@](O)(CCC(C)(C)O)C(=O)O[C@@H]1C(OC)=C[C@]23CCCN2CCc2cc4c(cc2[C@H]13)OCO4 | CARBON DIOXIDE | mmol/L | 29.33 |
| Cc1c(N)nc([C@H](CC(N)=O)NC[C@H](N)C(N)=O)nc1C(=O)N[C@H](C(=O)N[C@H](C)[C@@H](O)[C@H](C)C(=O)N[C@H](C(=O)NCCc1nc(-c2nc(C(=O)NCCC[S+](C)C)cs2)cs1)[C@@H](C)O)[C@@H](O[C@@H]1O[C@@H](CO)[C@@H](O)[C@H](O)[C@@H]1O[C@H]1O[C@H](CO)[C@@H](O)[C@H](OC(N)=O)[C@@H]1O)c1c[nH]cn1.[Br-] | CARBON DIOXIDE | mmol/L | 25.67 |

We now examine a further molecule.
*Q* Value lookup for CARBON DIOXIDE; key = `CO[C@@]12[C@H](COC(N)=O)C3=C(C(=O)C(C)=C(N)C3=O)N1C[C@@H]1N[C@@H]12`
*A* 32.5
